Item-by-item account of IC50
Target: hmGluR1 receptor (Homo sapiens, UniProt Q13255)
Construct: expressed in transfected cells
Sequence (Q13255 19-1194): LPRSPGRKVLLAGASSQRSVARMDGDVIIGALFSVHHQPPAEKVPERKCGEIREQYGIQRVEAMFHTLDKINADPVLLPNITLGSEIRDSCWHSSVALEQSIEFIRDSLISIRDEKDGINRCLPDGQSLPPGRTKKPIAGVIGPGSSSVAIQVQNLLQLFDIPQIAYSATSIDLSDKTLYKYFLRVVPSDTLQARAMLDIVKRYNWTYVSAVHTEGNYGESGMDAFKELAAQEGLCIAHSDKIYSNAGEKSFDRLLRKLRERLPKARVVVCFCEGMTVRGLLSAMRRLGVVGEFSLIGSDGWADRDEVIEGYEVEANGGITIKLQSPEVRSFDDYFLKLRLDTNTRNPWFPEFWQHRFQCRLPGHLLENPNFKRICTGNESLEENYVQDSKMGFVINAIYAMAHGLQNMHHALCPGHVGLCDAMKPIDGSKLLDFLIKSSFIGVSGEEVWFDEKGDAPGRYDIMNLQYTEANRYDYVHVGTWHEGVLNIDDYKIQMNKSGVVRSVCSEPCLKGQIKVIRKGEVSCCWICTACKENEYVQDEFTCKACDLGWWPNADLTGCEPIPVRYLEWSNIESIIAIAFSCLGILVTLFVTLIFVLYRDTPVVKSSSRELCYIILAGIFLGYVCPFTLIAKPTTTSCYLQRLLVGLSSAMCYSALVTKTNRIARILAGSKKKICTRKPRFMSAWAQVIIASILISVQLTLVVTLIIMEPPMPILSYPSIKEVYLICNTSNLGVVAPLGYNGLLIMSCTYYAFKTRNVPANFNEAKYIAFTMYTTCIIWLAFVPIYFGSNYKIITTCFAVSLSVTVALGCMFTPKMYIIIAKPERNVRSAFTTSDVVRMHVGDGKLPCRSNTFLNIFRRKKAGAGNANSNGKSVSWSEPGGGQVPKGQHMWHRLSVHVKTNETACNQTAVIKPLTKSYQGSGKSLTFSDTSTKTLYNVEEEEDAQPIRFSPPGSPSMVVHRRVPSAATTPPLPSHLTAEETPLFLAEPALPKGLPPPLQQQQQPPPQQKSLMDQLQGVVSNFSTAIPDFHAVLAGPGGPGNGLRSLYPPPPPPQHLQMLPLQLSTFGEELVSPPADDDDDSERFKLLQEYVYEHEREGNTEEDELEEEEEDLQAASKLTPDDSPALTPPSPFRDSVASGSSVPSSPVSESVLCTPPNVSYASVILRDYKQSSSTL
Assay: IC50 determination: intracellular calcium mobilization (FLIPR) upon Quisqualate stimulation in CHO cells stably expressing hmGluR1
Type: cell-based
Settings: against Quisqualate 1 μM (EC80), FLIPR calcium mobilization, read-out: IC50 Class

Worked cases, answers included:
compound | IC50
O=c1c2sc3ncnc(Nc4ccccc4)c3c2ncn1-c1ccc2ncsc2c1 [95GD] | > 1000 nM
C=CCN(C)c1ccnc2sc3c(=O)n(-c4ccc(OC)cc4)cnc3c12 [28EA] | < 50 nM
CCn1cnc2c(sc3ncnc(Nc4ccc(OC)cc4)c32)c1=O [95GM] | > 1000 nM
COCCCNc1ccnc2sc3c(=O)n(-c4ccc(F)cc4)cnc3c12 [28GS] | < 50 nM
CNc1ccnc2sc3c(=O)n(-c4cccc(Cl)c4)cnc3c12 [28CC] | 50 to 150 nM
COc1ccc(-n2cnc3c(sc4ncc(F)c(N(C)C)c43)c2=O)cc1 [compound 192] | < 50 nM

Could you share which IC50 value was measured for CCNc1ccnc2sc3c(=O)n(-c4ccc(OC)c(F)c4)cnc3c12 [28FZ] ?
< 50 nM

Could you share which IC50 value was measured for CC(CO)Nc1ccnc2sc3c(=O)n(-c4ccc(Br)cc4)cnc3c12 (centres unmarked) [28HC] ?
50 to 150 nM

Could you share which IC50 value was measured for Cc1ccc(-n2cnc3c(sc4nccc(NCC(C)(C)C)c43)c2=O)cc1 [28ES] ?
> 1000 nM

Could you share which IC50 value was measured for CCNc1ccnc2sc3c(=O)n(-c4ccc5c(c4)CCO5)cnc3c12 [28BQ] ?
< 50 nM

Could you share which IC50 value was measured for O=c1c2sc3nccc(NC4CC4)c3c2ncn1-c1ccc(OS(=O)(=O)C(F)(F)F)cc1 [28HT] ?
> 1000 nM

---

Target: hmGluR1 receptor (Homo sapiens, UniProt Q13255)
Construct: expressed in transfected cells
Assay: IC50 determination: intracellular calcium mobilization (FLIPR) upon Quisqualate stimulation in CHO cells stably expressing hmGluR1
Type: cell-based
Details: against Quisqualate 1 μM (EC80), FLIPR calcium mobilization, read-out: IC50 Class
Protocol: A CHO cell line stably expressing hmGluR1 receptor was established. One day prior to assay, cells were split in growth media at concentration of 50,000 cells/well in a volume of 100 μl and seeded into black clear-bottom 96-well plates. After two to six hours, when cells were well attached to the plate, growth medium was replaced with assay medium (100 μL) consisting of DMEM high glucose, supplemented with GPT (1 U/mL) and Sodium pyruvate, 1 mM. […]
Item-by-item account of IC50

Worked cases, answers included:
compound | outcome-measure | value
CCN(C)c1ccnc2sc3c(=O)n(-c4cccc(Cl)c4)cnc3c12 [28CA] | IC50 | < 50 nM
O=c1c2sc3nccc(Oc4ccccc4)c3c2ncn1-c1ccc(Cl)cc1 | IC50 | > 1000 nM
CNc1nncc2sc3c(=O)n(-c4ccc(C)cc4)cnc3c12 [167H] | IC50 | 150 to 1000 nM
C#CC(CC)(CC)Nc1ccnc2sc3c(=O)n(-c4ccc(C)cc4)cnc3c12 [28EU] | IC50 | 150 to 1000 nM
O=c1c2sc3nccc(NC4CC4)c3c2ncn1-c1ccc2c(c1)CCO2 [28CE] | IC50 | < 50 nM
COc1ccc(-n2cnc3c(sc4nc(Cl)cc(OC)c43)c2=O)cc1 [57B] | IC50 | > 1000 nM

Could you share which IC50 value was measured for O=c1c2sc3ncnc(NCC4CC4)c3c2ncn1-c1ccc(Cl)cc1 [95DR] ?
50 to 150 nM

Could you share which IC50 value was measured for COc1ccnc2sc3c(=O)n(-c4ccc(Cl)cc4F)cnc3c12 [28FT] ?
150 to 1000 nM

Could you share which IC50 value was measured for Cc1ccc(-n2cnc3c(sc4ncnc(NCC(C)(C)C)c43)c2=O)cc1 [95FP] ?
> 1000 nM

Could you share which IC50 value was measured for COc1c(Br)cnc2sc3c(=O)n(-c4ccc(Cl)cc4)cnc3c12 [28EH] ?
< 50 nM

Could you share which IC50 value was measured for COc1ccc(-n2cnc3c(sc4ncc(Br)c(N)c43)c2=O)cc1 [173B] ?
< 50 nM

Could you share which IC50 value was measured for CN(C)c1ccnc2sc3c(=O)n(CCc4c(Cl)cccc4Cl)cnc3c12 [28EN] ?
150 to 1000 nM

Could you share which IC50 value was measured for O=c1c2sc3nccc(Nc4ccccc4)c3c2ncn1-c1ccc(Cl)cc1 [190C] ?
150 to 1000 nM

Could you share which IC50 value was measured for COc1ccccc1CCn1cnc2c(sc3nccc(N(C)C)c32)c1=O [28EM] ?
> 1000 nM

Could you share which IC50 value was measured for COc1ccc(-n2cnc3c(sc4ncnc(Nc5ccccc5)c43)c2=O)cc1F [95GA] ?
> 1000 nM

Could you share which IC50 value was measured for COc1ccc(Nc2ncnc3sc4c(=O)n(-c5ccc(F)cc5)cnc4c23)cc1 [95GK] ?
> 1000 nM

Could you share which IC50 value was measured for COc1ccc(-n2cnc3c(sc4nccc(NCC(F)(F)F)c43)c2=O)c(C)c1 [28BP] ?
150 to 1000 nM

Could you share which IC50 value was measured for COc1ccc(-n2cnc3c(sc4nccc(N(C)N)c43)c2=O)cc1 [28DO] ?
< 50 nM

Could you share which IC50 value was measured for C#CCNc1ncnc2sc3c(=O)n(-c4ccc(OC)c(F)c4)cnc3c12 [95EK] ?
150 to 1000 nM

Could you share which IC50 value was measured for O=c1c2sc3ncnc(NCC4CC4)c3c2ncn1-c1ccc(Br)cc1 [95DS] ?
150 to 1000 nM

The measurements presented in this section are drawn from patent US7989464B2.
